- Method Notes: label from the status in PepcDB records

[
  {
    "Item Sequence": "MTQELQTLEVEEEMMMRKFYELMSRQRLNKKMIMLVLIEIDVGSFEENGEDSKCVTWTERHKPLKGNNAAGVLPLQRLVRDGLLAYGPEVF",
    "protein production": "failed"
  },
  {
    "Item Sequence": "METGTHVRDVIFPGGNAAPDAGSVVAAIHQLPTLRLLSLDAHGRVLDWINWQDAACLYARDAVSWTLGEPCMQIHGGISRLTGERSTLELHPIIAARGHARSRALDPTPTLSNTALFARDAQLCMYCGQHFSRPHLTRDHVMPVSKGGRDSWENVVTACFQCNSRKANRTPQQAHMPLLAVPYRPSWIEHLILSNRNILSDQMAFLRAQLPKRSKLSLQAGAPRVADPG",
    "protein production": "failed"
  }
]

----------
- Method Notes: label from the status in PepcDB records

[
  {
    "Item Sequence": "MEAKLSSIEIPVGQDELSGTLLTPTGMPGVLFVHGWGGSQHHSLVRAREAVGLGCICMTFDLRGHEGYASMRQSVTRAQNLDDIKAAYDQLASLPYVDAHSIAVVGLSYGGYLSALLTRERPVEWLALRSPALYKDAHWDQPKVSLNADPDLMDYRRRALAPGDNLALAACAQYKGDVLLVEAENDVIVPHPVMRNYADAFTNARSLTSRVIAGADHALSVKEHQQEYTRALIDWLTEMVVGRRIALAKEVVAARKQLLKEQQGDAVSLPGQGSREFRGDIRAVEKTSA",
    "protein production": "not failed"
  },
  {
    "Item Sequence": "MSLVRSKAPLRLGLAGGGSDVSPYSDIYGGLILNATINLYAYCTIEETNSGRIEINAYDAQCCKSYLSMSQLEIDGEASLIKGVYNRIIRDYRLEPKSFKITTYNDAPAGSGLGTSSTMVVCILKAFIEWLSLPLGDYETSRLAYEIERKDLGLSGGKQDQYAAAFGGFNYMEFLQNDLVIVNPLKMKRWIVDELESSMVLYFTGRSRSSAAIINEQKKNTSEGNQTAIEAMHKIKQSAIDTKLALLKGDVGEFARILGEGWENKKKMAGAITNPMIQEAFDVATGAGAMAGKVSGAGGGGFIMFVVEPTRKEEVVRALNNLNGFVMPFQFIDDGAHGWKIYSTDKVQKEGHHHHHH",
    "protein production": "not failed"
  }
]

----------
- Method Notes: label from the status in PepcDB records

[
  {
    "Item Sequence": "MYIVNSNKSRGSSVERYIVSRLRDKGFAVIRAPASGSKRKDHVPDIIALKSGVIILIEVKSRKNGQKIYIEKEQAEGIREFAKRSGGELFLGVKLPKMLRFIKFDMLRQTEGGNYAIDLETVEKGMELEDLVRYVESKISRTLDSFL",
    "protein production": "not failed"
  },
  {
    "Item Sequence": "DSIVEGRTLNVAVSPASPPMLFKSADGKLQGIDLELFSSYCQSRHCKLNITEYAWDGMLGAVASGQADVAFSGISITDKRKKVIDFSEPYYINSFYLVSMANHKITLNNLNELNKYSIGYPRGMAYSDLIKNDLEPKGYYSLSKVKLYPTYNETMADLKNGNLDLAFIEEPVYFTFKNKKKMPIESRYVFKNVDQLGIAFKKGSPVRDDFNLWLKEQGPQKISGIVDSWMK",
    "protein production": "not failed"
  }
]
